subject.of.test: MaxL homodimer (Homo sapiens, UniProt P61244 1-160)
Sequence (P61244 whole entry): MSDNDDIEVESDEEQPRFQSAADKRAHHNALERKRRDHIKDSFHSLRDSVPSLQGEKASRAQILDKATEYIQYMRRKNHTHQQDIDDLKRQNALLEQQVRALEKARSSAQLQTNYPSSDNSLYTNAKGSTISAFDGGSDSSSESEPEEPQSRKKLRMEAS
assay.overview: universal protein-binding microarray (PBM); PBS-based mixture, 10 nM His-tagged protein dimer, 2% milk, 200 ng/uL BSA, 50 ng/uL salmon testes DNA, 0.02% TX-100; detection with Alexa 488 anti-His antibody;; high values mean tight binding;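 also: fluorescence intensity normalized to that of the highest-ranked 8-mer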
run.conditions: protein: recombinant; tags: C-terminal His-tag (pET21a); chain copies: 2; dsDNA, one strand shown
Whole data set: some 33,000 sequences, median “normalized occupancy” near 0.075, cut for the highest 2% near 0.095. The sample holds the highest values, similar sequences and a random draw of the others, so the mix is not that of the screen.
parameter.measured: binding signal (normalized occupancy)
Give the number; normalized occupancy is assumed, so skip it.

Known results for sequences:
• CCGCATGA = 0.113
• CATTAGCG = 0.0779
• CGACGTCA = 0.0748

The sequence listed as ACGCATTC has a reported binding signal of 0.0764

The sequence AGTATTAT showed binding signal equal to 0.0827

Kindly note the recorded binding signal for CAAGCGAG , which is 0.0757

Lab note: CCGCATTC gave binding signal of 0.072

For record AACCTACT the listed binding signal is 0.074

Data point: CAATTAAA ; binding signal = 0.0744

Recorded binding signal (sequence GGTAACTA ): 0.077

# binding signal of ACGCATGC = 0.124

Note to self: binding signal recorded for ACGCATAC was 0.0842

Field binding signal (entry CCGCATGC ) reads 0.128

The value of binding signal measured for the sequence GAAATCAA turned out to be 0.075

// sample ATGCGTAG , its binding signal was 0.0832

The recorded binding signal for entry AAAGCGCG equals 0.0769

Recorded binding signal (sequence CCGCATCC ): 0.0787

Measured binding signal of CCGCATCA : 0.0853

Documented binding signal of CCGCATAA : 0.0821

binding signal recorded for this sequence, ACGCGAAG , is 0.0765

Entry ACGCATTG — recorded binding signal = 0.0891

Lab note: measured binding signal of AAAGCGTG was 0.11

* * *

Parameter: binding signal. Scope: all listed entries.
subject.of.test: MaxL homodimer (Homo sapiens, UniProt P61244 1-160)
assay.overview: universal protein-binding microarray (PBM); PBS-based mixture, 10 nM His-tagged protein dimer, 2% milk, 200 ng/uL BSA, 50 ng/uL salmon testes DNA, 0.02% TX-100; detection with Alexa 488 anti-His antibody;; high values mean tight binding;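 also: fluorescence intensity normalized to that of the highest-ranked 8-mer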
run.conditions: protein: recombinant; tags: C-terminal His-tag (pET21a); chain copies: 2; dsDNA, one strand shown
Over roughly 33,000 sequences, “normalized occupancy” has its median near 0.075; the highest 2% begin near 0.095. This is one part of a sample in which the highest values are shown more often than they occur.
The figure you give is taken to be in normalized occupancy; do not add the unit.

Would you please look over these solved cases?
• TAGGACTA = 0.0732
• CACGCTTC = 0.098
• GGGTGTTA = 0.0779
• AAGAAGGC = 0.0751

The reported MaxL homodimer (Homo sapiens, UniProt P61244 1-160) binding signal of ACGCTGTG is 0.0735

Record CACGCGAA ; system MaxL homodimer (Homo sapiens, UniProt P61244 1-160); binding signal = 0.105

Measured on MaxL homodimer (Homo sapiens, UniProt P61244 1-160), ATTATGTA has a documented binding signal of 0.0828

Lab entry: MaxL homodimer (Homo sapiens, UniProt P61244 1-160) assay, sequence AATTTTTG , binding signal = 0.0733

* * *

subject.of.test: MaxL homodimer (Homo sapiens, UniProt P61244 1-160)
assay.overview: universal protein-binding microarray (PBM); PBS-based mixture, 10 nM His-tagged protein dimer, 2% milk, 200 ng/uL BSA, 50 ng/uL salmon testes DNA, 0.02% TX-100; detection with Alexa 488 anti-His antibody;; high values mean tight binding;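 also: fluorescence intensity normalized to that of the highest-ranked 8-mer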
run.conditions: protein: recombinant; tags: C-terminal His-tag (pET21a); chain copies: 2; dsDNA, one strand shown
Whole data set: some 33,000 sequences, median “normalized occupancy” near 0.075, cut for the highest 2% near 0.095. Only a selection was taken, and the highest values are over-represented in it overall.
Entries get a class label from measured binding signal. See ranges: low bracket (below 0.08 normalized occupancy), middle bracket (0.08 normalized occupancy to below 0.09 normalized occupancy), high bracket (0.09 normalized occupancy or more)

Consider the following illustrative entries.
- AACGTGAA: middle bracket
- ACCACACA: middle bracket
- GTATGCAC: middle bracket

[ask] Which binding signal category applies to GGAGAACA here?
[reply] low bracket

[ask] Which class is correct for the following sequence? ACCACGGC
[reply] low bracket

[ask] Classify this sequence: GACGCTAC
[reply] low bracket

* * *

Parameter binding signal: see the listing below.
subject.of.test: MaxL homodimer (Homo sapiens, UniProt P61244 1-160)
assay.overview: universal protein-binding microarray (PBM); PBS-based mixture, 10 nM His-tagged protein dimer, 2% milk, 200 ng/uL BSA, 50 ng/uL salmon testes DNA, 0.02% TX-100; detection with Alexa 488 anti-His antibody;; high values mean tight binding;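 also: fluorescence intensity normalized to that of the highest-ranked 8-mer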
run.conditions: protein: recombinant; tags: C-terminal His-tag (pET21a); chain copies: 2; dsDNA, one strand shown
Whole data set: some 33,000 sequences, median “normalized occupancy” near 0.075, cut for the highest 2% near 0.095. This excerpt belongs to a sample that is enriched for the highest values.
Numbers only here, please. The scale is normalized occupancy.

The sequence listed as ACGACGTA shows binding signal equal to 0.0786

Short answer for CTATGCTC : binding signal was 0.0822

// field: binding signal; key: ACCTCAAA ; value = 0.0749

binding signal measured on AGTGCTAG = 0.0731

response.value for CCTTCAGA (field: binding signal) = 0.0732

Noted for ACAACGGG : its binding signal reads 0.0774

Just so you know, measured binding signal for ACACCACA came out at 0.083

So, ACACACGC ? Its binding signal was 0.103

What the record says about ATAACGTG : binding signal is 0.113

Kindly note the recorded binding signal for CCCACGGC , which is 0.0782

get_value(item= AATTAAGC , readout=binding signal) returns 0.0756

Sure, the documented binding signal for AGGGGTGA is 0.082

For record CGGCATAC the listed binding signal is 0.0757

Summary for this sequence, AGAACGTG : binding signal is 0.1

The sequence identified as AGGACATA registered its binding signal at 0.0758

Record GATTCACC , field binding signal: 0.0757

Note to self: binding signal recorded for CGATGCTC was 0.0773

Sure, the documented binding signal for CCACACGC is 0.0953

GTAGTAAA yielded binding signal of 0.0757

// binding signal value for ACCACGGT : 0.0803

Input ACACCACG . Output binding signal: 0.0983

Briefly, binding signal measured for ACGACGTG : 0.0963

* * *

Listing of entries alongside the reported binding signal.
subject.of.test: MaxL homodimer (Homo sapiens, UniProt P61244 1-160)
assay.overview: universal protein-binding microarray (PBM); PBS-based mixture, 10 nM His-tagged protein dimer, 2% milk, 200 ng/uL BSA, 50 ng/uL salmon testes DNA, 0.02% TX-100; detection with Alexa 488 anti-His antibody;; high values mean tight binding;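 also: fluorescence intensity normalized to that of the highest-ranked 8-mer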
run.conditions: protein: recombinant; tags: C-terminal His-tag (pET21a); chain copies: 2; dsDNA, one strand shown
Whole data set: some 33,000 sequences, median “normalized occupancy” near 0.075, cut for the highest 2% near 0.095. The sample holds the highest values, similar sequences and a random draw of the others, so the mix is not that of the screen.
Express your answer in normalized occupancy, writing the number without its unit.

See these solved cases before continuing.
- TACGTGCA: 0.0875
- ATTGGCAG: 0.0726
- CGTATGCC: 0.0784
- GATGTGCA: 0.0814

Below: the item to evaluate.
The value of binding signal measured for the sequence TAGTTTGA turned out to be 0.0723

* * *

subject.of.test: MaxL homodimer (Homo sapiens, UniProt P61244 1-160)
assay.overview: universal protein-binding microarray (PBM); PBS-based mixture, 10 nM His-tagged protein dimer, 2% milk, 200 ng/uL BSA, 50 ng/uL salmon testes DNA, 0.02% TX-100; detection with Alexa 488 anti-His antibody;; high values mean tight binding;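 also: fluorescence intensity normalized to that of the highest-ranked 8-mer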
run.conditions: protein: recombinant; tags: C-terminal His-tag (pET21a); chain copies: 2; dsDNA, one strand shown
In all, about 33,000 sequences were measured (“normalized occupancy”: median about 0.075, highest 2% from about 0.095 on). For the sample, the highest values were picked, then their nearest neighbours and some sequences at random.
parameter.measured: binding signal

# example entries with known answers
- GAGATCCC: 0.0743 normalized occupancy
- ATTTTCTA: 0.0856 normalized occupancy
- GATCACGC: 0.0977 normalized occupancy
- ATATGGTA: 0.0884 normalized occupancy

Reported binding signal for CTCCACGC was 0.101 normalized occupancy

// binding signal lookup, sequence = AGCTGAAA , result: 0.0723 normalized occupancy

binding signal reported for this sequence CGGAGGTA : 0.0743 normalized occupancy
